# Tested on: HEK-293T
# assay.info: Multiplex assay against HEK293T
# Format: toxicity, cell-based
# test.context: human, 24 h, 1 µM, compound concentration 1 uM, replicate 1
Reported Population Fragmented Nuclei (%) values for the following molecules.
metric: Population Fragmented Nuclei (%)

>  <molecule>
C[C@H](N)COC(=O)[C@@H](CCCCN)NC(=O)Cc1c(-c2ccc3ccccc3c2)[nH]c2c1ccc1ccccc12

>  <metric>
Population Fragmented Nuclei (%)

>  <endpoint.value>
9%

$$$$
>  <molecule>
COC[C@@H](c1ccc(C(F)(F)F)cc1)N1CCN(C2(C)CCN(C(=O)c3c(C)ncnc3C)CC2)C[C@@H]1C.O=C(O)/C=C\C(=O)O [VICRIVIROC MALEATE]

>  <metric>
Population Fragmented Nuclei (%)

>  <endpoint.value>
9%

$$$$
>  <molecule>
CCCCCC(O)/C=C/[C@H]1C(=O)CC(O)C1C/C=C\CCCC(=O)O (some centres undefined)

>  <metric>
Population Fragmented Nuclei (%)

>  <endpoint.value>
8%

$$$$
>  <molecule>
COc1cccc2c1c(NS(=O)(=O)c1ccc(Cl)s1)nn2Cc1cccc(CNC(=O)C(C)(C)O)c1

>  <metric>
Population Fragmented Nuclei (%)

>  <endpoint.value>
7%

$$$$
